# tested-system: human GPR119 (Homo sapiens)
# assay-info: Functional cellular assay measuring GPR119-mediated cAMP release (HTRF) in HEK-293 cells stably expressing recombinant human GPR119
# applied-conditions: cAMP response, cell line expressing human GPR119, 30 minutes at room temperature
readout: EC50 (nM)

Worked cases, answers included:
smiles_repr=CN(C)C(=O)c1nc2ccc(N3CC[C@@H](Oc4ccc(OCC5CC5)nc4)C3=O)cc2c(=O)[nH]1 readout=EC50 readout_units=nM measured_value=276
smiles_repr=CN(C)C(=O)CN1Cc2ccc(N3CC[C@@H](Oc4ccc(N5CCCC5=O)cc4)C3=O)cc2C1=O readout=EC50 readout_units=nM measured_value=1470

P = Cc1cnc(-c2ccc(O[C@@H]3CCN(c4ccc5c(c4)C(=O)N(CC(=O)N(C)C)C5)C3=O)cn2)s1
Q = CN1Cc2c(F)cc(N3CC[C@@H](Oc4ccc(OCCC5CC5)nc4)C3=O)cc2C1=O
Select the item whose EC50 value is smaller, choosing between P and Q . Lab note: record the label of whichever item you select.
P

====

# tested-system: human GPR119 (Homo sapiens)
# assay-info: Functional cellular assay measuring GPR119-mediated cAMP release (HTRF) in HEK-293 cells stably expressing recombinant human GPR119
# applied-conditions: cAMP response, cell line expressing human GPR119, 30 minutes at room temperature
readout: EC50 (nM)

compound="COC(=O)CNC(=O)CN1Cc2ccc(N3CC[C@@H](Oc4ccc(OCC5CC5)nc4)C3=O)cc2C1=O [Example 4-31]" measured_value=153
compound="COC(=O)CN1Cc2ccc(N3CC[C@@H](Oc4ccc(OC5CC5)nc4)C3=O)cc2C1=O [Example 1-22]" measured_value=242
compound="CS(=O)(=O)CN1Cc2c(F)cc(N3CC[C@@H](Oc4ccc(OCC5CC5)nc4)C3=O)cc2C1=O [Example 1-17]" measured_value=30
compound="CC(C)NC(=O)CN1Cc2ccc(N3CC[C@@H](Oc4ccc(OCC(F)(F)F)nc4)C3=O)cc2C1=O [Example 4-37]" measured_value=232
compound="CN(C)C(=O)CN1Cc2ccc(N3CC[C@@H](Oc4ccc(C(=O)C5CC5)nc4)C3=O)cc2C1=O [Example 2-58]" measured_value=251

P = NC(=O)CN1Cc2ccc(N3CC[C@@H](Oc4ccc(OCC(F)(F)F)nc4)C3=O)cc2C1=O [Example 1-56]
Q = CN(C)C(=O)CN1Cc2ncc(N3CC[C@@H](Oc4ccc(Oc5ccc(F)cc5)nc4)C3=O)cc2C1=O [Example 1-28]
When their EC50 values are compared, which is larger, P or Q ? Lab note: record the label of whichever item you select.
Q

a = CCOc1ccc(O[C@@H]2CCN(c3cc(F)c4c(c3)C(=O)N(CC#N)C4)C2=O)cn1 [Example 5-01]
b = CN(C)C(=O)CN1Cc2ccc(N3CC[C@@H](Oc4ccc(-n5cnnc5)cc4)C3=O)cc2C1=O [Example 2-36]
c = CN(C)C(=O)CN1Cc2ccc(N3CC[C@@H](Oc4ccc(F)nc4)C3=O)cc2C1=O [Example 2-17]
d = O=C(O)CNC(=O)CN1Cc2ccc(N3CC[C@@H](Oc4ccc(OCC5CC5)nc4)C3=O)cc2C1=O [Example 3-04]
Arrange by EC50, high to low. List each label, following the requested order.
b, c, d, a
(b: 32800 nM, c: 9360 nM, d: 807 nM, a: 67 nM)

A = CN(C)C(=O)CN1Cc2ccc(N3CC[C@@H](Oc4ccc(C(=O)CC5CC5)cc4)C3=O)cc2C1=O [Example 2-21]
B = CC(=O)N1CCN(c2ccc(O[C@@H]3CCN(c4ccc5c(c4)C(=O)N(CC(=O)N(C)C)C5)C3=O)cc2)CC1 [Example 2-26]
C = COC(=O)CN1Cc2ccc(N3CC[C@@H](Oc4ccc(OCC5CC5)nc4)C3=O)cc2C1=O [Example 1-40]
D = C[S+]([O-])CN1Cc2ccc(N3CC[C@@H](Oc4ccc(OCC5CC5)nc4)C3=O)cc2C1=O (stereo partly drawn) [Example 1-52]
Arrange by EC50, high to low. List each label, following the requested order.
B, D, A, C

====

# tested-system: human GPR119 (Homo sapiens, UniProt Q8TDV5)
# Sequence (Q8TDV5 1-335): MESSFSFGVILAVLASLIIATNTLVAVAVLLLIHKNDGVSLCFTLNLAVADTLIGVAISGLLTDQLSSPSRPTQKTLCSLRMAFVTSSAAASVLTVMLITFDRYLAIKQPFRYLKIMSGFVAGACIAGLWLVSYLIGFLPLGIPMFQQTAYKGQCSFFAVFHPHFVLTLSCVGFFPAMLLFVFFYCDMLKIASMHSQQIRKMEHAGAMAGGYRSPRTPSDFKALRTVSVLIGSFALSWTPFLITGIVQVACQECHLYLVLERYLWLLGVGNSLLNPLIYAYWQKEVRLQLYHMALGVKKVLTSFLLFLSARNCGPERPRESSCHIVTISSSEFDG
# assay-info: Functional cellular assay measuring GPR119-mediated cAMP release (HTRF) in HEK-293 cells stably expressing recombinant human GPR119
# applied-conditions: cAMP response, cell line expressing human GPR119, 30 minutes at room temperature
readout: EC50 (nM)

Worked cases, answers included:
molecule="CN(C)C(=O)CN1Cc2ccc(N3CC[C@@H](Oc4ccc(-c5csnn5)cc4)C3=O)cc2C1=O [Example 2-40]" readout=EC50 readout_units=nM measured_value=337
molecule="CC(C(=O)O)N1Cc2ccc(N3CC[C@@H](Oc4ccc(OCC5CC5)nc4)C3=O)cc2C1=O (stereo partly shown) [Example 1-02]" readout=EC50 readout_units=nM measured_value=2030
molecule="Cc1cc(O[C@@H]2CCN(c3ccc4c(c3)C(=O)N(CC(=O)N(C)C)C4)C2=O)cnc1OCC1CC1 [Example 2-07]" readout=EC50 readout_units=nM measured_value=115
molecule="CCOc1ccc(O[C@@H]2CCN(c3cc(F)c4c(c3)C(=O)N(CC(N)=O)C4)C2=O)cn1 [Example 4-16]" readout=EC50 readout_units=nM measured_value=271

A = CN(C)C(=O)CN1Cc2c(F)cc(N3CC[C@@H](Oc4ccc(OC5CC5)nc4)C3=O)cc2C1=O [Example 1-21]
B = Cn1nnc(CN2Cc3c(F)cc(N4CC[C@@H](Oc5ccc(OCC6CC6)nc5)C4=O)cc3C2=O)n1 [Example 1-18]
C = O=C1[C@H](Oc2ccc(OCC3CC3)nc2)CCN1c1ccc2[nH][nH]c(=O)c2c1 [Example 1-24]
# rank by EC50, ascending (min first) List each label, following the requested order.
B, A, C
(B: 65 nM, A: 346 nM, C: 14300 nM)

====

# tested-system: human GPR119 (Homo sapiens)
# assay-info: Functional cellular assay measuring GPR119-mediated cAMP release (HTRF) in HEK-293 cells stably expressing recombinant human GPR119
# applied-conditions: cAMP response, cell line expressing human GPR119, 30 minutes at room temperature
pEC50: −log10 of the molar value.
readout: pEC50

Worked cases, answers included:
molecule=O=C(CN1Cc2ccc(N3CC[C@@H](Oc4ccc(OCC(F)(F)F)nc4)C3=O)cc2C1=O)N1CCC(O)CC1 readout=pEC50 measured_value=6.74
molecule=CN(C)C(=O)CN1Cc2ccc(N3CC[C@@H](Oc4ccc(SCC5CC5)nc4)C3=O)cc2C1=O readout=pEC50 measured_value=7.33
molecule=O=C(CN1Cc2ccc(N3CC[C@@H](Oc4ccc(Oc5ccc(F)cc5)nc4)C3=O)cc2C1=O)N1CCC(O)CC1 readout=pEC50 measured_value=6.66

1 = CCn1nnnc1-c1ccc(O[C@@H]2CCN(c3ccc4c(c3)C(=O)N(CC(=O)N(C)C)C4)C2=O)cc1
2 = CN(C)C(=O)CN1Cc2ccc(N3CC[C@@H](Oc4ccc(C(=O)C5CC5)cc4)C3=O)cc2C1=O
3 = CN(C)C(=O)CN1Cc2ccc(N3CC[C@@H](Oc4ccc(C(=O)CCC5CC5)nc4)C3=O)cc2C1=O
4 = CNC(=O)CN1Cc2ccc(N3CC[C@@H](Oc4ccc(OCC5CC5)nc4)C3=O)cc2C1=O
Arrange by pEC50, high to low. List each label, following the requested order.
3, 4, 2, 1
(3: 7.30, 4: 6.97, 2: 6.69, 1: 4.57)

====

# tested-system: human GPR119 (Homo sapiens, UniProt Q8TDV5)
# Sequence (Q8TDV5 1-335): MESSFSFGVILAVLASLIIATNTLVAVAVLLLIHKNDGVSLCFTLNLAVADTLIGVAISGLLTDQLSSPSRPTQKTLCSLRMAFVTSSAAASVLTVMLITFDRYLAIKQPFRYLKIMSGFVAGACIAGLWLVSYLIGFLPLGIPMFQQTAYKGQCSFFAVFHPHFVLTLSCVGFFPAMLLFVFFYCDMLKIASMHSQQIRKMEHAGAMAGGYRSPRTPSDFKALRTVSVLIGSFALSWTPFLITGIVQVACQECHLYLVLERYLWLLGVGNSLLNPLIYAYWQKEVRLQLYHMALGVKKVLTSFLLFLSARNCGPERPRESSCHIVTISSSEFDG
# assay-info: Functional cellular assay measuring GPR119-mediated cAMP release (HTRF) in HEK-293 cells stably expressing recombinant human GPR119
# applied-conditions: cAMP response, cell line expressing human GPR119, 30 minutes at room temperature
pEC50: −log10 of the molar value.
readout: pEC50

compound=O=C(CN1Cc2c(F)cc(N3CC[C@@H](Oc4ccc(OCC5CC5)nc4)C3=O)cc2C1=O)NCCO measured_value=6.58
compound=CN(C)C(=O)CN1Cc2ncc(N3CC[C@@H](Oc4ccc(C(=O)CC5CC5)cc4)C3=O)cc2C1=O measured_value=6.44
compound=CCOc1ccc(O[C@@H]2CCN(c3cc(F)c4c(c3)C(=O)N(CC(=O)N3CCC(O)CC3)C4)C2=O)cn1 measured_value=6.53
compound="CN(C)C(=O)CC1c2ccc(N3CC[C@@H](Oc4ccc(OCC5CC5)nc4)C3=O)cc2C(=O)N1C (stereo partly shown)" measured_value=5.72

1 = CN(C)C(=O)CN1Cc2ccc(N3CC[C@@H](Oc4cnc(OCC5CC5)c(F)c4)C3=O)cc2C1=O
2 = CN(C)C(=O)CN1Cc2ccc(N3CC[C@@H](Oc4ccc(SC(F)(F)F)cc4)C3=O)cc2C1=O
3 = COC(=O)CN1C(=O)c2cc(N3CC[C@@H](Oc4ccc(OCC5CC5)nc4)C3=O)ccc2C1C (stereo partly shown)
Arrange by pEC50, high to low. List each label, following the requested order.
2, 1, 3
(2: 7.39, 1: 7.09, 3: 6.66)
